Quick record of pIC50 values for MERS-CoV 3CLpro (Middle East respiratory syndrome-related coronavirus, UniProt K9N638).
pIC50: −log10 of the molar value.

compound	pIC50
CC1(C)[C@@H]2[C@H]3C(=O)N[C@H](C#N)C[C@@H]4C(=O)NC[C@@H]4CCCC[C@H](NC(=O)C4CC5(CCC5)C4)C(=O)N3C[C@@H]21 (stereo partly drawn)	6.00 to 7.00
CC1(C)[C@@H]2[C@H]3C(=O)N[C@H](C#N)C[C@@H]4C(=O)NC[C@@H]4CCCC[C@H](NC(=O)c4ccc(F)cc4)C(=O)N3C[C@@H]21	> 7.00
CC(C)C[C@@H]1NC(=O)C(OC2CCCCC2)CCC[C@H]2CNC(=O)[C@@H]2C[C@@H](C#N)NC1=O (stereo partly drawn)	< 4.70

Considering CC(C)(C)OC(=O)N[C@H]1COCCC[C@H]2CNC(=O)[C@H]2C[C@@H](C#N)NC(=O)[C@@H]2[C@@H]3[C@H](CN2C1=O)C3(C)C , its pIC50 with MERS-CoV 3CLpro (Middle East respiratory syndrome-related coronavirus, UniProt K9N638) was recorded as 6.00 to 7.00

Considering CC(C)C[C@@H]1NC(=O)[C@@H](Cc2cccc(C(F)(F)F)c2)CCCC[C@H]2CNC(=O)[C@H]2C[C@@H](C#N)NC1=O , its pIC50 with MERS-CoV 3CLpro (Middle East respiratory syndrome-related coronavirus, UniProt K9N638) was recorded as 4.70 to 6.00

Considering CC1(C)[C@@H]2[C@H]3C(=O)N[C@H](C#N)C[C@@H]4C(=O)NC[C@@H]4CCCC[C@H](NS(=O)(=O)c4ccc(F)cc4F)C(=O)N3C[C@@H]21 , its pIC50 with MERS-CoV 3CLpro (Middle East respiratory syndrome-related coronavirus, UniProt K9N638) was recorded as > 7.00

###

Quick record of IC50 values for UniProt:K9N638.

# example entries with known answers
> print(dat)
                                   compound   tested.system       result
1  CC(C)C[C@@H]1NC(=O)[C@@H](Cc2ccccc2)CCC[C@@H]2CNC(=O)[C@@H]2C[C@@H](C=O)NC1=O [Example 9]  UniProt:K9N638   1 to 20 µM
2  CC(C)(C)OC(=O)N[C@H]1CCCC[C@H]2CNC(=O)[C@H]2C[C@@H](C#N)NC(=O)[C@@H]2CC(F)(F)CN2C1=O [Example 131]  UniProt:K9N638  0.1 to 1 µM

Considering CC1(C)[C@@H]2[C@H]3C(=O)N[C@H](C#N)C[C@@H]4C(=O)NCC[C@@H]4CCCC[C@H](NC(=O)C(F)(F)F)C(=O)N3C[C@@H]21 [Example 104] , its IC50 with UniProt:K9N638 was recorded as < 0.1 µM

###

# tested-system: MERS-CoV 3CLpro (Middle East respiratory syndrome-related coronavirus, UniProt K9N638)
# Sequence (K9N638 3248-3553 limits assumed): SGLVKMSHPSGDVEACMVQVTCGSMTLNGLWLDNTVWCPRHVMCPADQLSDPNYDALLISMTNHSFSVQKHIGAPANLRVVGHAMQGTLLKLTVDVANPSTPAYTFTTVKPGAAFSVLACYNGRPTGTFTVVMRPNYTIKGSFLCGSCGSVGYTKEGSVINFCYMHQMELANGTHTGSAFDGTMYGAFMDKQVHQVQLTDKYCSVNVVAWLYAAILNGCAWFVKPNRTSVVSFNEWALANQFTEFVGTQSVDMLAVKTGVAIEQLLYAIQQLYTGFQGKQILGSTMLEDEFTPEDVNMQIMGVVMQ
pIC50: −log10 of the molar value.
Readings of pIC50 for the listed compounds

# example entries with known answers
compound	endpoint-name	result
CC(C)C[C@@H]1NC(=O)CCCCCC[C@@H]2CNC(=O)[C@H]2C[C@@H](C=O)NC1=O [Example 47]	pIC50	< 4.70
CCO[C@@H]1C[C@H]2C(=O)N[C@H](C#N)C[C@@H]3C(=O)NC[C@@H]3CCCC[C@H](NC(=O)OC(C)(C)C)C(=O)N2C1 [Example 144]	pIC50	4.70 to 6.00

pIC50 reported for this compound CC(C)C[C@@H]1NC(=O)CCCCC[C@@H]2CCNC(=O)[C@H]2C[C@@H](C=O)NC1=O [Example 33] : < 4.70

pIC50 reported for this compound N#C[C@@H]1C[C@@H]2C(=O)NCC[C@@H]2CCCC[C@H](NC(=O)OC2CCCC2)C(=O)N2C[C@@H]3CCC[C@@H]3[C@H]2C(=O)N1 [Example 93] : 6.00 to 7.00

###

# tested-system: SARS-CoV-2 3CLpro (Severe acute respiratory syndrome coronavirus 2)
# measurement-description: FRET based protease assay, SARS-CoV-2 3CL
endpoint-name: IC50

> print(dat)
                                   compound  endpoint.name       result
1  CC(C)(C(=O)N[C@H]1CCCC[C@H]2CNC(=O)[C@H]2C[C@@H](C#N)NC(=O)[C@@H]2[C@@H]3[C@H](CN2C1=O)C3(C)C)c1ccc(Cl)cc1           IC50     < 0.1 µM
2  CC(C)C[C@@H]1NC(=O)CCCCCC[C@H]2CNC(=O)[C@H]2C[C@@H](C=O)NC1=O           IC50  0.1 to 1 µM
3  CC(C)C[C@@H]1NC(=O)CCCCCC[C@H]2CNCC(=O)[C@@H]2C[C@@H](C=O)NC1=O           IC50  0.1 to 1 µM
4  CC1(C)[C@@H]2[C@H]3C(=O)N[C@H](C#N)C[C@@H]4C(=O)NC[C@@H]4CCCC[C@H](NC(=O)C4CCC(F)(F)CC4)C(=O)N3C[C@@H]21           IC50     < 0.1 µM
5  CC(C)(C)C(=O)N[C@H]1CCC[C@H]2CCNC(=O)[C@@H]2C[C@@H](C#N)NC(=O)[C@@H]2[C@@H]3[C@H](CN2C1=O)C3(C)C           IC50     < 0.1 µM
6  CC(C)C[C@@H]1NC(=O)[C@@H](OC(C)(C)C)CCC[C@H]2CNC(=O)[C@@H]2C[C@@H](C#N)NC1=O           IC50      > 20 µM

IC50 reported for this compound CC(C)C[C@@H]1NC(=O)[C@@H](Cc2ccccc2)CCCC[C@H]2CNC(=O)[C@H]2C[C@@H](C#N)NC1=O : 0.1 to 1 µM

IC50 reported for this compound CC(C)C[C@@H]1NC(=O)[C@@H](Cc2ccccc2)CCCC[C@@H]2CNC(=O)[C@@H]2C[C@@H](C=O)NC1=O : 1 to 20 µM

IC50 reported for this compound CC(C)(C)OC(=O)N[C@H]1CCC[C@H]2CNC(=O)[C@H]2C[C@@H](C#N)NC(=O)[C@@H]2[C@@H]3[C@H](CN2C(=O)C1)C3(C)C : 1 to 20 µM

IC50 reported for this compound CC(C)C[C@@H]1NC(=O)CCCCCC[C@@H]2CNC(=O)[C@H]2C[C@@H](C=O)NC1=O : 1 to 20 µM

IC50 reported for this compound CC(C)C[C@@H]1NC(=O)[C@H](Cc2ccccc2)CCC[C@H]2CNC(=O)[C@@H]2C[C@@H](C=O)NC1=O : < 0.1 µM

###

Quick record of pIC50 values for UniProt K9N638.
pIC50: −log10 of the molar value.

# example entries with known answers
molecule	tested-system	endpoint-name	result
CC(C)C[C@@H]1NC(=O)[C@@H](N(C)C(=O)OC(C)(C)C)CCC[C@H]2CNC(=O)[C@@H]2C[C@@H](C#N)NC1=O [Example 22]	UniProt K9N638	pIC50	< 4.70
CC1(C)[C@@H]2[C@H]3C(=O)N[C@H](C#N)C[C@@H]4C(=O)NC[C@@H]4CCCC[C@H](NS(=O)(=O)C4CCC4)C(=O)N3C[C@@H]21 [Example 160]	UniProt K9N638	pIC50	> 7.00
CC1(C)[C@@H]2[C@H]3C(=O)N[C@H](C#N)C[C@@H]4C(=O)NC[C@@H]4CCCC[C@H](N)C(=O)N3C[C@@H]21 [Example 161]	UniProt K9N638	pIC50	4.70 to 6.00
CC(C)C[C@@H]1NC(=O)[C@@H](C2CCCC2)CCC[C@@H]2CNC(=O)[C@@H]2C[C@@H](C=O)NC1=O [Example 14]	UniProt K9N638	pIC50	4.70 to 6.00
Cc1cc(C(=O)N[C@H]2CCCC[C@H]3CNC(=O)[C@H]3C[C@@H](C#N)NC(=O)[C@@H]3[C@@H]4[C@H](CN3C2=O)C4(C)C)no1 [Example 122]	UniProt K9N638	pIC50	> 7.00
CC(C)(C)C(=O)N[C@H]1CCCC[C@H]2CNC(=O)[C@H]2C[C@@H](C#N)NC(=O)[C@@H]2CCCCN2C1=O [Example 71]	UniProt K9N638	pIC50	4.70 to 6.00
CC(C)(C)C(=O)N[C@H]1CCCC[C@H]2CCNC(=O)[C@H]2C[C@@H](C#N)NC(=O)[C@@H]2[C@@H]3[C@H](CN2C1=O)C3(C)C [Example 69]	UniProt K9N638	pIC50	6.00 to 7.00
Cc1nc(C(=O)N[C@H]2CCCC[C@H]3CNC(=O)[C@H]3C[C@@H](C#N)NC(=O)[C@@H]3[C@@H]4[C@H](CN3C2=O)C4(C)C)cs1 [Example 113]	UniProt K9N638	pIC50	> 7.00
CC(C)(C)C(=O)N[C@H]1CC/C=C/[C@H]2CNC(=O)[C@H]2C[C@@H](C#N)NC(=O)[C@@H]2[C@H]3CCC[C@H]3CN2C1=O [Example 86]	UniProt K9N638	pIC50	6.00 to 7.00
CC(C)(C)C[C@@H]1NC(=O)[C@@H](NC(=O)OC(C)(C)C)CCCC[C@H]2CNC(=O)[C@H]2C[C@@H](C#N)NC1=O [Example 60]	UniProt K9N638	pIC50	6.00 to 7.00

Considering CC(C)C[C@@H]1NC(=O)[C@@H](C2CCCC2)CCC[C@H]2CNC(=O)[C@@H]2C[C@@H](C#N)NC1=O [Example 28] , its pIC50 with UniProt K9N638 was recorded as 4.70 to 6.00

Considering N#C[C@@H]1C[C@H]2C(=O)NC[C@@H]2CCCCC(=O)N2C[C@@H]3CCC[C@@H]3[C@H]2C(=O)N1 [Example 26] , its pIC50 with UniProt K9N638 was recorded as < 4.70

Considering CC(C)(C)C(=O)N[C@H]1CCCC[C@H]2CNC(=O)[C@H]2C[C@@H](C#N)NC(=O)[C@@H]2[C@H]3CCC[C@H]3CN2C1=O [Example 70] , its pIC50 with UniProt K9N638 was recorded as 6.00 to 7.00

Considering CC(C)C[C@@H]1NC(=O)CCCCC[C@H]2CNC(=O)[C@@H]2C[C@@H](C=O)NC1=O [Example 32] , its pIC50 with UniProt K9N638 was recorded as 6.00 to 7.00

Considering CC1(C)[C@@H]2[C@H]3C(=O)N[C@H](C#N)C[C@@H]4C(=O)NC[C@@H]4CCCC[C@H](NC(=O)c4ccc(F)cc4F)C(=O)N3C[C@@H]21 [Example 103] , its pIC50 with UniProt K9N638 was recorded as > 7.00

Considering CC(C)(C)OC(=O)N[C@H]1CCCC[C@H]2CNC(=O)[C@H]2C[C@@H](C#N)NC(=O)[C@@H]2[C@@H]3[C@H](CN2C1=O)C3(C)C [Example 72] , its pIC50 with UniProt K9N638 was recorded as > 7.00

Considering CC(C)C[C@@H]1NC(=O)CCCCCC[C@@H]2CNC(=O)[C@@H]2C[C@@H](C=O)NC1=O [Example 46] , its pIC50 with UniProt K9N638 was recorded as 4.70 to 6.00

Considering CC(C)(C)OC(=O)N[C@H]1CCCC[C@H]2CNC(=O)[C@H]2C[C@@H](C#N)NC(=O)[C@@H]2CCCCCN2C1=O [Example 143] , its pIC50 with UniProt K9N638 was recorded as 6.00 to 7.00

Considering CC(C)C[C@@H]1NC(=O)CCCCC[C@H]2CNC(=O)[C@H]2C[C@@H](C=O)NC1=O [Example 30] , its pIC50 with UniProt K9N638 was recorded as 4.70 to 6.00

Considering CC1(C)[C@@H]2[C@H]3C(=O)N[C@H](C#N)C[C@@H]4C(=O)NC[C@@H]4CCCC[C@H](NC(=O)CC4CCCC4)C(=O)N3C[C@@H]21 [Example 90] , its pIC50 with UniProt K9N638 was recorded as 6.00 to 7.00

Considering CC(C)(C)OC(=O)N[C@H]1CCCC[C@H]2CNC(=O)[C@H]2C[C@@H](C#N)NC(=O)[C@@H]2CC3(CCN2C1=O)CC3 [Example 132] , its pIC50 with UniProt K9N638 was recorded as 6.00 to 7.00

Considering CC(C)(C)C(=O)N[C@H]1CCCC[C@H]2CCNC(=O)[C@@H]2C[C@@H](C#N)NC(=O)[C@@H]2[C@@H]3[C@H](CN2C1=O)C3(C)C [Example 65] , its pIC50 with UniProt K9N638 was recorded as 6.00 to 7.00

Considering CC(C)(C)OC(=O)N[C@H]1CC/C=C\[C@H]2CCNC(=O)[C@H]2C[C@@H](C#N)NC(=O)[C@@H]2[C@@H]3[C@H](CN2C1=O)C3(C)C [Example 114] , its pIC50 with UniProt K9N638 was recorded as 6.00 to 7.00

Considering N#C[C@@H]1C[C@@H]2C(=O)NC[C@@H]2/C=C/CC[C@H](NC(=O)C(F)(F)F)C(=O)N2C[C@@H]3CCC[C@@H]3[C@H]2C(=O)N1 [Example 101] , its pIC50 with UniProt K9N638 was recorded as 6.00 to 7.00

Considering CC(C)(C)OC(=O)N[C@H]1CCCC[C@H]2CCNC(=O)C2C[C@@H](C#N)NC(=O)[C@@H]2[C@H]3CCC[C@H]3CN2C1=O (stereo partly shown) [Example 98] , its pIC50 with UniProt K9N638 was recorded as 6.00 to 7.00

The reported numbers originate from patent US20260325540A1.
